// provenance: PubChem BioAssay (NCI)

System: EKVX NSCLC
method-notes: NCI tumour cell line growth inhibition, 48 h
Please go through the items and note down their TGI.

Example cases with answers are listed next.
C=CC1(CCC(Br)C(C)(C)Cl)CO1 (configuration not stated) :: > 10 µM
CCOC(=O)NNC(=O)NC12CC3CC(CC(C3)C1)C2 :: > 100 µM

For every listed record, write down its TGI.
1. Cn1c(=O)c2[nH]c(N/N=C3/SCC(=O)N3Cc3ccccc3)nc2n(C)c1=O
2. CN1CC(C(=O)NC2(C)OC3(O)C4CCCN4C(=O)C(Cc4ccccc4)N3C2=O)C=C2c3cccc4[nH]cc(c34)CC21 (configuration not stated)
3. O=C(CCN1CCCCC1CO)Nc1ccc2c(c1)C(=O)c1ccc(NC(=O)CCN3CCCCC3CO)cc1C2=O (configuration not stated)
4. O=C1CC2Sc3ccccc3N=C2N1c1ccc(Cl)cc1Cl (configuration not stated)
5. CC(=O)C1=C(O)/C(=C\c2ccco2)OC1=O

Response line:
["> 100 µM", "> 100 µM", "47 µM", "> 100 µM", "> 10 µM"]

---

Tested on: NCI-H226 lung
method-notes: NCI tumour cell line growth inhibition, 48 h
Record form. Attribute: GI50. Fill in for each entry.

Look up GI50 for the entries below, preserving their order.
1. CC(C)(C)c1ccc(S(=O)(=O)N[C@H]2CC[C@H]3[C@@H]4CCc5cc(O)ccc5[C@H]4CC[C@]23C)cc1
2. O=c1c2cc(F)ccc2sc2c(NCCCN3CCCC3)nc3ccccc3c12
3. O=c1[nH]c(-c2ccccn2)nc2sc3c(c12)CCCCCC3
4. CCOC(=O)C1=C(c2ccccc2)N(Cc2ccccc2)C2(O)C=CC(=O)C3C(=O)N(c4ccccc4)C(=O)C132 (stereo unspecified)
5. C=C(CC1(CC(=C)c2ccc(C(=O)O)cc2)C(=O)N(C)C(=O)N(C)C1=O)c1ccc(C(=O)O)cc1
6. CCC1(N2C(=O)c3c(F)c(F)c(F)c(F)c3C2=O)C(=O)NC(=O)N(c2ccccc2)C1=O (stereo unspecified)
7. Cc1csc(Nc2nc(-c3cccc(Cl)c3)nc(C(Cl)(Cl)Cl)n2)n1

Response line:
1.75 µM
3.37 µM
> 100 µM
2.25 µM
> 100 µM
10.9 µM
> 33.3 µM

---

For each entry below, report its TGI value.
Test system: MALME-3M melanoma
method-notes: NCI tumour cell line growth inhibition, 48 h
Give bare numbers, in µM.

Solved entries (count: 2):
C#Cc1ccc(-n2c(/C=C/c3cc(OC)c(OC)c(OC)c3)nc3ncccc3c2=O)cc1 :: 70.5
CN(C)CCNc1nc2ccccc2c2c1C(=O)c1ccccc1-2 :: 1.12

Turning to the following compound.
Prompt line: Specify TGI for `COC(=O)Nc1nc2ccc(Sc3ccc(NC(=O)Nc4cc(C(F)(F)F)ccc4F)cc3)cc2[nH]1` and stop.
Response line: 23.6

---

Tested on: ACHN renal
method-notes: NCI tumour cell line growth inhibition, 48 h
Note to self: values exactly at 30 µM are criterion met. So TGI at or above 30 µM is criterion met, below is criterion not met.

Here are 5 compounds together with their reported answers.
CC(=O)N[C@@H]1CCC[C@H](C(=O)Nc2cc(-c3cnn4c3CC(C)(C)C4)c(Cl)cn2)C1 :: criterion met
C#Cc1ccc(-n2c(/C=C/c3cc(OC)c(OC)c(OC)c3)nc3ncccc3c2=O)cc1 :: criterion met
COc1ccc([C@@]23CCC(=O)C[C@@H]2N(C)CC3)cc1OC :: criterion met
O=C(CN=Cc1cccs1)CSC(c1ccccc1)c1ccccc1 :: criterion met
COc1cc(/C=C2\C[C@H]3[C@@H]4CC=C5C[C@@H](N6CCCC6)CC[C@]5(C)[C@H]4CC[C@]3(C)[C@H]2OC(C)=O)cc(OC)c1OC :: criterion met

Prompt line: Check this compound for TGI at or above 30 µM: `C=C1c2nc3ccccc3n2C=C(c2ccccc2)N1c1ccc(OC)cc1`
Response line: criterion not met

Prompt line: Given NC(CO)c1ccccc1 (stereo unspecified) , state whether its TGI is at least 30 µM.
Response line: criterion met

Prompt line: Test whether the compound `CC(C)(C)c1ccc(S(=O)(=O)N[C@H]2CC[C@H]3[C@@H]4CCc5cc(O)ccc5[C@H]4CC[C@]23C)cc1` records TGI of 30 µM or higher.
Response line: criterion not met

Prompt line: hey, is TGI for this one >= 30 µM? `Fc1nc(F)nc(-c2c3ccccc3c3n2CCS3)n1`
Response line: criterion met

Prompt line: Tell me whether TGI is at least 30 µM here: COC1C(CO)OC(n2c3ccccc3c3c4c(c5c6ccccc6[nH]c5c32)C(=O)NC4=O)C(O)C1OC(=O)C(N)CCCCN (stereo unspecified)
Response line: criterion not met

Prompt line: Does CCC1NCC(=O)c2c1[nH]c1ccccc21 (stereo unspecified) have a reported TGI of at least 30 µM?
Response line: criterion met

Prompt line: Does TGI meet or surpass 30 µM for CN(C)CCNC(=O)c1cccc2c(NC(CS)C(=O)O)c3ccccc3nc12 (stereo unspecified) ?
Response line: criterion met

Prompt line: Reported TGI reaches at least 30 µM for `Nc1ncnc2c1ncn2Cc1ccc(C23CC4CC(CC(C4)C2)C3)c(O)c1` ?
Response line: criterion met
